The measured values listed here are drawn from ChEMBL document CHEMBL1201862.

Item-by-item account of IC50
# measured_on: Carboxy-terminal domain RNA polymerase II polypeptide A small phosphatase 1 (Homo sapiens, UniProt Q9GZU7)
# Sequence (Q9GZU7 whole entry): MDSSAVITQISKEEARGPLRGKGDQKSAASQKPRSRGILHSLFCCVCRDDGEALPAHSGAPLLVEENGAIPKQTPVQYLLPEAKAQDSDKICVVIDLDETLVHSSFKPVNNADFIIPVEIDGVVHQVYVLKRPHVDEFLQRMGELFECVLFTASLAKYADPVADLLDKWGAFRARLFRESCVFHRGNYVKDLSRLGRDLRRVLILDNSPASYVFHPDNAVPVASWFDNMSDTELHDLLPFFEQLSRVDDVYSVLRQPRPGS
# test_method_notes: inhibitors of CTDSP1, concentration-response testing, biochemical assay, absorbance-based, actives from ultra-high-throughput screening (AID 540297)
# Format: functional
Calls of active or inactive are those of the source.

Sample records with IC50:
Fill in: IC50 of O=C(COC(=O)c1cc2c(s1)CCC2)Nc1ccc(F)cc1 is ___
4.34 µM (active)

Fill in: IC50 of O=C(CSc1nnc(-c2ccc(S(=O)(=O)N3CCCC3)cc2)o1)NCc1ccco1 is ___
16.3 µM (active)

Fill in: IC50 of Cc1c(Cl)c(C(F)F)nn1CC(=O)NC1C(=O)N2C(C(=O)O)=C(CSc3nnnn3C)CSC12 (stereo not given) is ___
6.48 µM (active)

New cases:
Fill in: IC50 of O=C(Cn1nnc(-c2ccc(NC(=O)c3ccccc3F)cc2)n1)NCc1ccc(F)cc1 is ___
4.75 µM (active)

Fill in: IC50 of CN(C)S(=O)(=O)c1cccc(NC(=O)COC(=O)/C=C/c2ccco2)c1 is ___
21.1 µM (active)

* * *

# measured_on: Cytochrome P450 3A4 (Homo sapiens)
# Sequence (P08684 whole entry): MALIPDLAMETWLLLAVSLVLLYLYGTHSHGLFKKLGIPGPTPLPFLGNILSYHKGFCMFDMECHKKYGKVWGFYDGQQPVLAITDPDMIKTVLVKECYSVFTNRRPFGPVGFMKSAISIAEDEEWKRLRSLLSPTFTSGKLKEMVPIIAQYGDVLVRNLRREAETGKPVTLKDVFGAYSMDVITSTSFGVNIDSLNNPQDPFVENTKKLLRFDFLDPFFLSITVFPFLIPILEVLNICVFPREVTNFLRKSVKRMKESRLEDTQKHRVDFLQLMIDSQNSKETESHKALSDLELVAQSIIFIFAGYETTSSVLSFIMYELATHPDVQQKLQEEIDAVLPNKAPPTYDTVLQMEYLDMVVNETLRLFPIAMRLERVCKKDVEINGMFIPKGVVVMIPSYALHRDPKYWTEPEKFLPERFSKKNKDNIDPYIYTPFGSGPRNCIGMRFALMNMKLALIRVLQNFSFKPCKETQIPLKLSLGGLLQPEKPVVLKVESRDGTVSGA
test_readout: AC50

Sample records with AC50:
Fill in: AC50 of CCN(CC)C(=O)C1CCCN(c2ccc([N+](=O)[O-])cc2/C=N/NC(=O)c2ccc([N+](=O)[O-])cc2)C1 (stereo not drawn) is ___
2.82 µM (inconclusive)

Fill in: AC50 of COn1c(-c2ccccc2)nc2c1CCc1nonc1-2 is ___
31.6 µM (inconclusive)

Fill in: AC50 of O=C1c2ccccc2C(=O)N1Cc1cc(-c2ccccc2Cl)no1 is ___
39.8 µM (inconclusive)

Fill in: AC50 of C=CCNC(=S)N/N=C/c1ccc(-c2cc(Cl)ccc2Cl)o1 is ___
10 µM (inconclusive)

Fill in: AC50 of CCN(c1ccc(NC(=O)COC(=O)c2ccc3ccccc3n2)cc1)C(C)C is ___
39.8 µM (inconclusive)

Fill in: AC50 of NC[C@@H]1O[C@H](c2ccccc2)Cc2c1ccc(O)c2O is ___
31.6 µM (inconclusive)

Fill in: AC50 of CCN(CC)C(=O)CSc1nnc(CNc2ccc(F)cc2)o1 is ___
25.1 µM (inconclusive)

Fill in: AC50 of COc1ccc2[nH]cc(CCNc3ccnc(-c4cccc(NS(C)(=O)=O)c4)n3)c2c1 is ___
2.51 µM (inconclusive)

Fill in: AC50 of Nc1ccccc1S[C@@H](C[N+](=O)[O-])c1ccc2c(c1)OCO2 is ___
2.51 µM (inconclusive)

Fill in: AC50 of CCOP(=O)(OCC)C(NC(=O)C(Cl)Cl)C(Cl)(Cl)Cl (stereo not drawn) is ___
31.6 µM (inconclusive)

New cases:
Fill in: AC50 of Nc1c(-c2cccs2)cnn1-c1nc(-c2ccc(Cl)cc2Cl)cs1 is ___
12.6 µM (inconclusive)

Fill in: AC50 of O=Nc1c(O)n(Cc2cccc(Cl)c2)c2ccccc12 is ___
39.8 µM (inconclusive)

Fill in: AC50 of CC1Cc2ccccc2N1Cc1nc(O)c2ccc(C(F)(F)F)cc2n1 (stereo not drawn) is ___
25.1 µM (inconclusive)
